Hello, the source for this data is ChEMBL document CHEMBL4184262, in case you need it.

- Test system: SK-N-SH
- assay protocol: Antiproliferative activity against human SK-N-SH cells incubated for 24 hrs by MTT assay
- Type: functional, cell-based
pIC50: −log10 of the molar value.

molecule smiles	pIC50
Brc1ccc(-c2nn(-c3ccccc3)c3c2c(-c2cccc4ccccc24)nc2ccccc23)cc1	5.26
COc1ccc(-c2nc3ccccc3c3c2c(-c2ccc(Br)cc2)nn3-c2ccccc2)c(OC)c1	5.42
Brc1ccc(-c2nn(-c3ccccc3)c3c2c(-c2ccco2)nc2ccccc23)cc1	5.42
Clc1ccc(-c2nc3ccccc3c3c2c(-c2ccccc2)nn3-c2ccccc2)c(Cl)c1	4.94
COc1ccccc1-c1nc2ccccc2c2c1c(-c1ccc(Br)cc1)nn2-c1ccccc1	5.26

###

- Tested on: SK-N-SH
- assay protocol: Antiproliferative activity against human SK-N-SH cells incubated for 24 hrs by MTT assay
- Format: functional, cell-based

molecule smiles	IC50 [µM]
Brc1ccc(-c2nn(-c3ccccc3)c3c2c(-c2cccs2)nc2ccccc23)cc1	5.24
COc1ccccc1-c1nc2ccccc2c2c1c(-c1ccccc1)nn2-c1ccccc1	5.39
COc1cccc2c1C(=O)c1c(O)c3c(c(O)c1C2=O)C[C@@](O)(C(=O)CO)C[C@@H]3O[C@H]1C[C@H](N)[C@H](O)[C@H](C)O1	2.42
Clc1ccc(-c2nc3ccccc3c3c2c(-c2ccccc2)nn3-c2ccccc2)cc1	6.65
Cc1ccc(-c2nc3ccccc3c3c2c(-c2ccccc2)nn3-c2ccccc2)cc1	5.02
Clc1ccc(-c2nc3ccccc3c3c2c(-c2ccc(Br)cc2)nn3-c2ccccc2)c(Cl)c1	7.13
O=[N+]([O-])c1cccc(-c2nc3ccccc3c3c2c(-c2ccc(Br)cc2)nn3-c2ccccc2)c1	3.87
Brc1ccc(-c2nn(-c3ccccc3)c3c2c(-c2ccccc2)nc2ccccc23)cc1	5.99
Cc1ccc(-c2nc3ccccc3c3c2c(-c2ccc(Br)cc2)nn3-c2ccccc2)cc1	4.54
Clc1ccc(-c2nc3ccccc3c3c2c(-c2ccc(Br)cc2)nn3-c2ccccc2)cc1	5.47
c1ccc(-c2nc3ccccc3c3c2c(-c2ccccc2)nn3-c2ccccc2)cc1	5.24

###

- System: MCF7
- assay protocol: Antiproliferative activity against human MCF7 cells incubated for 24 hrs by MTT assay
- Format: functional, cell-based
- measurement conditions: MCF7, 24 h

molecule smiles	IC50, µM
Cc1ccc(-c2nc3ccccc3c3c2c(-c2ccc(Br)cc2)nn3-c2ccccc2)cc1	19.6
Brc1ccc(-c2nn(-c3ccccc3)c3c2c(-c2cccs2)nc2ccccc23)cc1	42.4
Brc1ccc(-c2nn(-c3ccccc3)c3c2c(-c2cccc4ccccc24)nc2ccccc23)cc1	18.4
Brc1ccc(-c2nn(-c3ccccc3)c3c2c(-c2ccccc2)nc2ccccc23)cc1	12.3
COc1ccccc1-c1nc2ccccc2c2c1c(-c1ccc(Br)cc1)nn2-c1ccccc1	123
Cc1ccc(-c2nc3ccccc3c3c2c(-c2ccccc2)nn3-c2ccccc2)cc1	24.2
Clc1ccc(-c2nc3ccccc3c3c2c(-c2ccccc2)nn3-c2ccccc2)c(Cl)c1	77.8
COc1ccc(-c2nc3ccccc3c3c2c(-c2ccc(Br)cc2)nn3-c2ccccc2)c(OC)c1	10.4
Brc1ccc(-c2nn(-c3ccccc3)c3c2c(-c2ccco2)nc2ccccc23)cc1	14
c1ccc(-c2nc3ccccc3c3c2c(-c2ccccc2)nn3-c2ccccc2)cc1	32.6

###

- Test system: MCF7
- assay protocol: Antiproliferative activity against human MCF7 cells incubated for 24 hrs by MTT assay
- Type: functional, cell-based
- measurement conditions: MCF7, 24 h
pIC50: −log10 of the molar value.
Reported pIC50 values follow for various compounds

molecule smiles	pIC50
Clc1ccc(-c2nc3ccccc3c3c2c(-c2ccccc2)nn3-c2ccccc2)cc1	4.95
O=[N+]([O-])c1cccc(-c2nc3ccccc3c3c2c(-c2ccc(Br)cc2)nn3-c2ccccc2)c1	4.69
COc1ccccc1-c1nc2ccccc2c2c1c(-c1ccccc1)nn2-c1ccccc1	4.81
Clc1ccc(-c2nc3ccccc3c3c2c(-c2ccc(Br)cc2)nn3-c2ccccc2)c(Cl)c1	5.22
Clc1ccc(-c2nc3ccccc3c3c2c(-c2ccc(Br)cc2)nn3-c2ccccc2)cc1	4.42
